target: recombinant human GAA (acid alpha-glucosidase) (Homo sapiens, UniProt P10253); experiment: Acid alpha-glucosidase (GAA) assay (4-methylumbelliferyl-alpha-D-pyranoside substrate, fluorescence)
recordedEndpoint: IC50 (nM)
Numbers only; they are read as nM.

Task: What value of IC50 has been recorded for this entry: COc1cc(NCCc2ccc(CCN3C[C@H](O)[C@@H](O)[C@H](O)[C@H]3CO)cc2)cc(-c2ncccn2)c1
Output: 814

Task: Requested field: IC50. Item: COc1cc(NCCc2ccc(CCN3C[C@H](O)[C@@H](O)[C@H](O)[C@H]3CO)cc2)cc(-c2ccco2)c1
Output: 57

Task: Please give the measured IC50 for this compound: CS(=O)(=O)Nc1ccc(NCCCCCCN2C[C@H](O)[C@@H](O)[C@H](O)[C@H]2CO)c([N+](=O)[O-])c1
Output: 20

Task: So what does the record say about IC50 for [N-]=[N+]=Nc1ccc(NCCc2ccccc2CCN2C[C@H](O)[C@@H](O)[C@H](O)[C@H]2CO)c([N+](=O)[O-])c1 ?
Output: 1920

Task: Which IC50 is reported for this compound? Nc1ccc(NCCn2cc(CCN3C[C@H](O)[C@@H](O)[C@H](O)[C@H]3CO)nn2)c([N+](=O)[O-])c1Cl
Output: 664

Task: Item OC[C@@H]1[C@@H](O)[C@H](O)[C@@H](O)CN1Cc1ccc(CNc2ccc(Br)cc2)cc1 has what recorded IC50?
Output: 666

Task: Given the compound Cc1cc(Br)cc(NCc2cccc(CN3C[C@H](O)[C@@H](O)[C@H](O)[C@H]3CO)c2)c1 , what is its reported IC50?
Output: 2090

Task: Sample O=[N+]([O-])c1cc(-c2cccnn2)ccc1NCCc1ccc(CCN2C[C@H](O)[C@@H](O)[C@H](O)[C@H]2CO)cc1 — what was its IC50?
Output: 3

Task: State the recorded IC50 for this entry: O=[N+]([O-])c1cc(N2CCOCC2)ccc1NCc1ccc(CN2C[C@@H](O)[C@H](O)[C@@H](O)[C@@H]2CO)cc1 (stereo in doubt)
Output: 68

Task: What does the record list as IC50 for [N-]=[N+]=Nc1ccc(NCCc2cc(CCN3C[C@H](O)[C@@H](O)[C@H](O)[C@H]3CO)cs2)c([N+](=O)[O-])c1 ?
Output: 692

Task: # query: IC50 of entry N#Cc1cc(NCc2ccc(CN3C[C@H](O)[C@@H](O)[C@H](O)[C@H]3CO)cc2)cc(N2CCOCC2)c1
Output: 86

Task: I have this compound here, N#Cc1ccc(F)cc1NCCCCCCN1C[C@H](O)[C@@H](O)[C@H](O)[C@H]1CO , and I need its recorded IC50.
Output: 41

Task: Quick one: IC50 of N#Cc1cc(NCc2ccc(CN3C[C@H](O)[C@@H](O)[C@H](O)[C@H]3CO)cc2)cc(-c2ccc[nH]2)c1 ?
Output: 32

Task: What does the data say about its IC50? Entry: Cc1nc(=O)c2cc(-c3ncccn3)ccc2n1CCCCCCN1C[C@H](O)[C@@H](O)[C@H](O)[C@H]1CO
Output: 46

Task: Entry Cc1cc(NCc2ccc(CN3C[C@H](O)[C@@H](O)[C@H](O)[C@H]3CO)cc2)cc(C2=COCCO2)c1 : reported IC50 = ?
Output: 278

Task: Please give the measured IC50 for this compound: OC[C@@H]1[C@@H](O)[C@H](O)[C@@H](O)CN1Cc1ccc(CNc2ccc(-c3cccnn3)cc2)cc1
Output: 243

Task: Reported IC50 for CS(=O)(=O)c1cc(NCc2ccc(CN3C[C@H](O)[C@@H](O)[C@H](O)[C@H]3CO)cc2)cc(-c2ncccn2)c1 : what is it?
Output: 74

Task: Reported IC50 for N#Cc1cc(Cl)cc(NCCc2ccc(CCN3C[C@H](O)[C@@H](O)[C@H](O)[C@H]3CO)cc2)c1 : what is it?
Output: 167

Task: # query: IC50 of entry Cc1cc(NCc2cccc(CN3C[C@H](O)[C@@H](O)[C@H](O)[C@H]3CO)n2)cc(-c2ccco2)c1
Output: 714

Task: Which measured IC50 value corresponds to COc1cc(C#N)cc(NCCc2ccc(CCN3C[C@H](O)[C@@H](O)[C@H](O)[C@H]3CO)cc2)c1 ?
Output: 542

Task: // lookup IC50 for COc1cc(NCCc2ccc(CCN3C[C@H](O)[C@@H](O)[C@H](O)[C@H]3CO)cc2)cc(-c2noc(C3CCC3)n2)c1
Output: 581

Task: Record request: IC50 value, item O=[N+]([O-])c1cc(Br)ccc1NCc1cccc(CN2C[C@H](O)[C@@H](O)[C@H](O)[C@H]2CO)c1
Output: 1330

Task: Requested read-out: IC50. Entry: COc1cc(NCCCCCCN2C[C@H](O)[C@@H](O)[C@H](O)[C@H]2CO)cc(-c2cnccn2)c1
Output: 37

Task: Any idea what IC50 was measured for N#Cc1cc(Br)cc(NCc2ccc(CN3C[C@H](O)[C@@H](O)[C@H](O)[C@H]3CO)cc2)c1 ?
Output: 64

Task: Returns the measured IC50 for the input compound. Input: COc1cc(NCCCCCCN2C[C@H](O)[C@@H](O)[C@H](O)[C@H]2CO)cc(C2=CCCO2)c1
Output: 38

Task: Need IC50 of O=[N+]([O-])c1cc(CCO)ccc1NCCCCCCN1C[C@H](O)[C@@H](O)[C@H](O)[C@H]1CO , thanks.
Output: 28

* * *

target: UniProt:P23739
Sequence (P23739 whole entry): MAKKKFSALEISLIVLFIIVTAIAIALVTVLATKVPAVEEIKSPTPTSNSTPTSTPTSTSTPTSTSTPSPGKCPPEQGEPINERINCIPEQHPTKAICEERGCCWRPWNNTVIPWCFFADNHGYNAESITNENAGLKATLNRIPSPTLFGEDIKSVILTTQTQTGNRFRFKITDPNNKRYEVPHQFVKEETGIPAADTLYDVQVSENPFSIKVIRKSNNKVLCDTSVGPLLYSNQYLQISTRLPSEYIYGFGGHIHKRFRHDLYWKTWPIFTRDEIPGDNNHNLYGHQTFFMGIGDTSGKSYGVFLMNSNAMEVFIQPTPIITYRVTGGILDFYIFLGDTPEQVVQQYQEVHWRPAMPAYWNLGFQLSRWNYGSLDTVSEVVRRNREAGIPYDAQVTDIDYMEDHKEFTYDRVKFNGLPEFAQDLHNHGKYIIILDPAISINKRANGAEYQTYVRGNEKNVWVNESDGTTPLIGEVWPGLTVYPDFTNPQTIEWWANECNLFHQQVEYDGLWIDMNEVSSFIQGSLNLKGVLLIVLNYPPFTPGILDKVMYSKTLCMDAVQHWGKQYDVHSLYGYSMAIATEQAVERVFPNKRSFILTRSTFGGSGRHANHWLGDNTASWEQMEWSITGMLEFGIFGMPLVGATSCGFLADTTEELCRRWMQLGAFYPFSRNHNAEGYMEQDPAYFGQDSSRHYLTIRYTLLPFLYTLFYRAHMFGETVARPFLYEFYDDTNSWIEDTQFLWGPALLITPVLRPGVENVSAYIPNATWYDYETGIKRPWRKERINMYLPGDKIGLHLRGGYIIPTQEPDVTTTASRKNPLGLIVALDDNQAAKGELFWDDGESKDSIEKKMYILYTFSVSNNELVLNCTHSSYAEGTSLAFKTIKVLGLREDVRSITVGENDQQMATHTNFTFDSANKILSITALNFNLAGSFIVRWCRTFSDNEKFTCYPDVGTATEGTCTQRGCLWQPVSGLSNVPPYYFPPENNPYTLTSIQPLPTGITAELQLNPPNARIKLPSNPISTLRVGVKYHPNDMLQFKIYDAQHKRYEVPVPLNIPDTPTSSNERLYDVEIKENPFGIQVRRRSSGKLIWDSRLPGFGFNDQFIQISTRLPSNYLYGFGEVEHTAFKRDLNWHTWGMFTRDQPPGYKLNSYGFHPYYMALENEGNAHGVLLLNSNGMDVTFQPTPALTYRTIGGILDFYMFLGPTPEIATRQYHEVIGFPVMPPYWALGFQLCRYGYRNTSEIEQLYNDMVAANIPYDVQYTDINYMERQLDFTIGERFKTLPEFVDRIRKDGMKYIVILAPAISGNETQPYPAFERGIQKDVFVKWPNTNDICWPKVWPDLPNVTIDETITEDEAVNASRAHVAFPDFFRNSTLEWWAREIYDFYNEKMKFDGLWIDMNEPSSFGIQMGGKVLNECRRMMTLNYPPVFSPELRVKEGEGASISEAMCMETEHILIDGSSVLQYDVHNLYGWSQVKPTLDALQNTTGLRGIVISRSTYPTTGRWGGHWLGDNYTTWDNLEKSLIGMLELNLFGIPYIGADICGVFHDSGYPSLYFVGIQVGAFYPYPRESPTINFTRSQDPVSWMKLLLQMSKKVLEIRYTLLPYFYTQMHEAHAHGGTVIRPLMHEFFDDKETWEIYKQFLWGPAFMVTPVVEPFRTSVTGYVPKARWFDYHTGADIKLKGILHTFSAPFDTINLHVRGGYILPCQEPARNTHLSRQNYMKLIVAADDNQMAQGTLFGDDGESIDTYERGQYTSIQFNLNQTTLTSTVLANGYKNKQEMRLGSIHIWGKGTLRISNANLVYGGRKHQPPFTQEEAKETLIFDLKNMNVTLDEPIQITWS
Values of IC50 strictly less than 200 nM map to true, and values of at least 200 nM map to false.

Task: Strictly below 200 nM: is that where IC50 of COC(OC)c1cc(NCCCCCCN2C[C@H](O)[C@@H](O)[C@H](O)[C@H]2CO)cc(-c2ncccn2)c1 sits?
Output: true

Task: Check if IC50 falls below 200 nM for O=[N+]([O-])c1cc(-c2cccnn2)ccc1NCc1ccc(CN2C[C@H](O)[C@@H](O)[C@H](O)[C@H]2CO)cc1 .
Output: true

Task: Input OC[C@@H]1[C@@H](O)[C@H](O)[C@@H](O)CN1CCc1cn(CCNc2ccccc2)c2ccccc12 ; condition: IC50 strictly below 200 nM. Does it hold?
Output: false

Task: Just wondering, is IC50 of Cc1cc(NCc2cnc(CN3C[C@H](O)[C@@H](O)[C@H](O)[C@H]3CO)cn2)cc(-c2ccc[nH]2)c1 below 200 nM?
Output: false

Task: In the record for Cc1cc(-c2ccco2)ccc1NCc1ccc(CN2C[C@H](O)[C@@H](O)[C@H](O)[C@H]2CO)cc1 , is IC50 less than 200 nM?
Output: true

Task: # strict comparison: is reported IC50 < 200 nM? input = OC[C@@H]1[C@@H](O)[C@H](O)[C@@H](O)CN1CCCCCCNc1ccc(-c2ncccn2)cc1C(F)(F)F
Output: true

Task: Please let me know if COc1cc(NCCc2ccc(CCN3C[C@H](O)[C@@H](O)[C@H](O)[C@H]3CO)cc2)cc(-c2cccnn2)c1 shows IC50 below 200 nM.
Output: false

* * *

molecular target: rat maltase (partially purified alpha-glucosidase from intestinal rat powder); test: Intestinal alpha-glucosidase assay, maltose substrate (Glucose GO Kit)
recordedEndpoint: pIC50
Scale note: pIC50 = -log10(concentration in M).

Task: Recorded pIC50 for [N-]=[N+]=Nc1ccc(NCCC(O)C(O)CCN2C[C@H](O)[C@@H](O)[C@H](O)[C@H]2CO)c([N+](=O)[O-])c1 (stereo partly shown) [Compound 1270] , please?
Output: 7.24

Task: What does the data say about its pIC50? Entry: N#Cc1cc(NCc2ccc(CN3C[C@H](O)[C@@H](O)[C@H](O)[C@H]3CO)cc2)cc(-c2ncccn2)c1 [Compound 1065]
Output: 8.52

Task: Record request: pIC50 value, item O=C(O)c1cc(NCCCCCCN2C[C@H](O)[C@@H](O)[C@H](O)[C@H]2CO)cc(-c2ncccn2)c1 [Compound 1118]
Output: 8.40

Task: So what's the measured pIC50 for this one? O=[N+]([O-])c1cc(Br)ccc1NCc1cccc(CN2C[C@H](O)[C@@H](O)[C@H](O)[C@H]2CO)c1 [Compound 1029]
Output: 8.00

Task: Dear colleague, I am looking for the recorded pIC50 of the following compound: NS(=O)(=O)c1cc(-c2ncccn2)ccc1NCCCCCCN1C[C@H](O)[C@@H](O)[C@H](O)[C@H]1CO [Compound 1265]
Output: 8.30

Task: For the compound OC[C@@H]1[C@@H](O)[C@H](O)[C@@H](O)CN1CCc1ccc(CCNc2cc(Cl)cc(-c3cccnn3)c2)cc1 [Compound 1163] , what pIC50 is on record?
Output: 6.51

* * *

target: recombinant alpha-glucosidase I (human full-length glucosidase I, Glu 1) (Homo sapiens); construct: 6-His (C); made in house; host or cells: HEK-293T cells transduced with BacMam virus (virus raised in Sf9); experiment: Alpha-glucosidase I assay (Amplex Red glucose detection, synthetic trisaccharide substrate); format: biochemical; conditions: Glucosidase 1; read-out: Glu 1 IC50
Sequence (Q13724 whole entry): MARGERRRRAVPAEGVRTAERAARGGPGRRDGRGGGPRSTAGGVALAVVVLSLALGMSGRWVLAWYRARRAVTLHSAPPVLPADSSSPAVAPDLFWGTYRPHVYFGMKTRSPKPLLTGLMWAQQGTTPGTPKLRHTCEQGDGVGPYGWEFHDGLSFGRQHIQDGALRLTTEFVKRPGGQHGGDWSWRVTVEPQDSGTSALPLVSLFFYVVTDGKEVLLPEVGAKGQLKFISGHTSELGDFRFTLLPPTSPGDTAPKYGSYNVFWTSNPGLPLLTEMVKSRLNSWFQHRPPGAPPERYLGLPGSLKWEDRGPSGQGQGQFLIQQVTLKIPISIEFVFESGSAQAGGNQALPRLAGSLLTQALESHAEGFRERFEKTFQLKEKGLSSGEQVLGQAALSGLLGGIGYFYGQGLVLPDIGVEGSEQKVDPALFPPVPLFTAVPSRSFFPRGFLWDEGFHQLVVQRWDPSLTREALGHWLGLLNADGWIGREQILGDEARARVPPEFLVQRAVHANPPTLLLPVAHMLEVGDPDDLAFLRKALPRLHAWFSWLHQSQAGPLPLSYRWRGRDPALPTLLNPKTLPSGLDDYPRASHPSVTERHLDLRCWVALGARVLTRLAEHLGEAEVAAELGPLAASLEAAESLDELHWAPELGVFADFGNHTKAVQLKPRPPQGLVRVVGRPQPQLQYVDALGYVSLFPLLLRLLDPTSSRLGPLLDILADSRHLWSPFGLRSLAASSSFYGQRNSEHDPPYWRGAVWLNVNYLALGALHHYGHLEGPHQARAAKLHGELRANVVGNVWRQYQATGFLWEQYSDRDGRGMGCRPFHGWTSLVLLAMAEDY
recordedEndpoint: IC50 (nM)
Express it in nM; write the number only.

Task: Need IC50, item O=[N+]([O-])c1cc(Br)ccc1NCc1cccc(CN2C[C@H](O)[C@@H](O)[C@H](O)[C@H]2CO)c1
Output: 8

Task: GET /values?readout=IC50&item= [N-]=[N+]=Nc1ccc(NCCNS(=O)(=O)NCCN2C[C@H](O)[C@@H](O)[C@H](O)[C@H]2CO)c([N+](=O)[O-])c1
Output: 4060

Task: Can you look up the measured IC50 of COc1cc(NCCc2ccc(CCN3C[C@H](O)[C@@H](O)[C@H](O)[C@H]3CO)cc2)cc(C2=COCCO2)c1 for me?
Output: 1250

Task: For [N-]=[N+]=Nc1ccc(NCCNC(=O)NCCN2C[C@H](O)[C@@H](O)[C@H](O)[C@H]2CO)c([N+](=O)[O-])c1 , what is its reported IC50?
Output: 2440

Task: Entry COc1ccc(CCCCCN2C[C@H](O)[C@@H](O)[C@H](O)[C@H]2CO)cc1 has what IC50?
Output: 678

Entry source: patent US20250197372A1
